# targetSystem: Human serotonin transporter (Homo sapiens, UniProt P31645)
# Sequence (P31645 whole entry): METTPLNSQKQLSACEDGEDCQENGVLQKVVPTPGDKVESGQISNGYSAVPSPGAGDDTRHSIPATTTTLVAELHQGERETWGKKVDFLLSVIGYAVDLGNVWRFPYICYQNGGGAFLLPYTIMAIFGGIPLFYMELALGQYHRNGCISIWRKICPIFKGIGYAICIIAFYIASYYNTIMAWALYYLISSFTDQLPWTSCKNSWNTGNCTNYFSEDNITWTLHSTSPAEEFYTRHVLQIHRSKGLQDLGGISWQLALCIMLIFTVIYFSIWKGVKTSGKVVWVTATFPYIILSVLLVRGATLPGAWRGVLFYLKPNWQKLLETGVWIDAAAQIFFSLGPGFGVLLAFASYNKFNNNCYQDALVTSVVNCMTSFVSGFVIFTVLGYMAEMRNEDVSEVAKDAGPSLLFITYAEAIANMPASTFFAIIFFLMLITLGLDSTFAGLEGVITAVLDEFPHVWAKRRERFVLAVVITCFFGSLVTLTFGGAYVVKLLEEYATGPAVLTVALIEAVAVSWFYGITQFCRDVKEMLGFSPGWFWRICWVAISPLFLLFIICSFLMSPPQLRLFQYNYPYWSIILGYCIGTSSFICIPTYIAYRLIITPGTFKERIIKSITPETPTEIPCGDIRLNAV
# methodDescription: Human serotonin transporter, blockade of 5-HT uptake
measuredQuantity: IC50 (nM)
Respond numerically; units are nM and should not be typed.

Q: Which IC50 reading was recorded for the compound Cc1ccc(Sc2ccccc2N2CCNCC2)c(C)c1 [compound I] ?
Ans: 40
